Experiment: AUClast in Dunkin-Hartley guinea pig plasma at 500 nmol/Kg, IT(Intratracheal) measured after 72 hrs by LC/MS-MS analysis
Format: ADME, cell-free, Cavia porcellus
Set-up: time 72 hrs, dose 500 nmol/kg, route it(Intratracheal)
Conditions: inhaled or intranasal
// reported AUC(0-t) at 72 h for each item listed
Value Kind: AUC(0-t) at 72 h (ng·h/mL)

Structure String	Value Kind	Quantitative Readout
O=c1ccc2c([C@@H](O)CNCCCCO)ccc(O)c2[nH]1	AUC(0-t) at 72 h	30.7
Cn1nc(C(=O)O)cc1COc1cccc([C@@H](NC(=O)O[C@H]2CN3CCC2CC3)c2ccccc2)c1	AUC(0-t) at 72 h	179
Cn1nc(C(=O)OCCCCNC[C@H](O)c2ccc(O)c3[nH]c(=O)ccc23)cc1COc1cccc([C@@H](NC(=O)O[C@H]2CN3CCC2CC3)c2ccccc2)c1	AUC(0-t) at 72 h	460

====

Test: Metabolic stability in human plasma assessed as half life at 5 uM measured upto 120 mins by LC-MS/MS analysis
Type: ADME, cell-free
Overview of reported half-life at 5 µM across a group of molecules:

Structure String	Unit Annotation	Modifier	half-life at 5 µM
O=C(N[C@@H](c1ccccc1)c1cccc(OCc2ccc(C(=O)OCCCCNC[C@H](O)c3ccc(O)c4[nH]c(=O)ccc34)cc2)c1)O[C@H]1CN2CCC1CC2	min	<	5
O=C(N[C@H](c1ccccc1)c1cccc(OCc2ccc(C(=O)OCCCCNC[C@H](O)c3ccc(O)c4[nH]c(=O)ccc34)cc2)c1)O[C@H]1CN2CCC1CC2	min	<	5
Cn1nc(C(=O)OCCCCNC[C@H](O)c2ccc(O)c3[nH]c(=O)ccc23)cc1COc1cccc([C@@H](NC(=O)O[C@H]2CN3CCC2CC3)c2ccccc2)c1	min	=	20
COc1cc(C(=O)OCCCCNC[C@H](O)c2ccc(O)c3[nH]c(=O)ccc23)ccc1COc1cccc([C@@H](NC(=O)O[C@H]2CN3CCC2CC3)c2ccccc2)c1	min	=	21
O=C(N[C@@H](c1ccccc1)c1cccc(OCc2ccc(C(=O)OCCCCNC[C@H](O)c3ccc(O)c4[nH]c(=O)ccc34)o2)c1)O[C@H]1CN2CCC1CC2	min	<	5

====

Reported pIC50 is given for each of the following compounds.
Tested on: Trachea
Assay: In vivo bifunctional antagonist activity at muscarinic M3 receptor /agonist activity at beta-2 adrenoceptor in Dunkin-Hartley guinea pig trachea assessed as inhibition of carbachol induced contraction
Assay type: functional, tissue-based
Settings: Cavia porcellus
pIC50: −log10 of the molar value.

Compound	Measurement Target	pIC50
O=C(N[C@H](c1ccccc1)c1cccc(OCc2ccc(C(=O)OCCCCNC[C@H](O)c3ccc(O)c4[nH]c(=O)ccc34)cc2)c1)O[C@H]1CN2CCC1CC2	Trachea	8.90
O=C(N[C@@H](c1ccccc1)c1cccc(OCc2ccc(C(=O)OCCCCNC[C@H](O)c3ccc(O)c4[nH]c(=O)ccc34)o2)c1)O[C@H]1CN2CCC1CC2	Trachea	9.70
O=C(NC(c1ccccc1)c1cccc(OCc2ccc(C(=O)OCCCCNC[C@H](O)c3ccc(O)c4[nH]c(=O)ccc34)cc2)c1)O[C@H]1CN2CCC1CC2 (mixture of isomers)	Trachea	10.10
O=C(N[C@@H](c1ccccc1)c1cccc(OCc2nc(C(=O)OCCCCNC[C@H](O)c3ccc(O)c4[nH]c(=O)ccc34)co2)c1)O[C@H]1CN2CCC1CC2	Trachea	9.60
COc1cc(C(=O)OCCCCNC[C@H](O)c2ccc(O)c3[nH]c(=O)ccc23)ccc1COc1cccc([C@@H](NC(=O)O[C@H]2CN3CCC2CC3)c2ccccc2)c1	Trachea	8.90
O=C(N[C@@H](c1ccccc1)c1cccc(OCc2cccc(C(=O)OCCCCNC[C@H](O)c3ccc(O)c4[nH]c(=O)ccc34)c2)c1)O[C@H]1CN2CCC1CC2	Trachea	9.30
O=C(N[C@@H](c1ccccc1)c1cccc(OCc2ccc(C(=O)OCCCCNC[C@H](O)c3ccc(O)c4[nH]c(=O)ccc34)cc2)c1)O[C@H]1CN2CCC1CC2	Trachea	10.00
Cn1nc(C(=O)OCCCCNC[C@H](O)c2ccc(O)c3[nH]c(=O)ccc23)cc1COc1cccc([C@@H](NC(=O)O[C@H]2CN3CCC2CC3)c2ccccc2)c1	Trachea	9.50

====

Experiment: Metabolic stability in Dunkin-Hartley guinea pig plasma assessed as half life at 5 uM measured upto 120 mins by LC-MS/MS analysis
Assay type: ADME, cell-free, Cavia porcellus
half-life at 5 µM reference
Value Kind: half-life at 5 µM (h)

Structure String	Modifier	Quantitative Readout
O=C(N[C@@H](c1ccccc1)c1cccc(OCc2nc(C(=O)OCCCCNC[C@H](O)c3ccc(O)c4[nH]c(=O)ccc34)co2)c1)O[C@H]1CN2CCC1CC2	=	1.3
Cn1nc(C(=O)OCCCCNC[C@H](O)c2ccc(O)c3[nH]c(=O)ccc23)cc1COc1cccc([C@@H](NC(=O)O[C@H]2CN3CCC2CC3)c2ccccc2)c1	=	0.567
O=C(N[C@@H](c1ccccc1)c1cccc(OCc2ccc(C(=O)OCCCCNC[C@H](O)c3ccc(O)c4[nH]c(=O)ccc34)o2)c1)O[C@H]1CN2CCC1CC2	>	2

====

Experiment: Apparent permeability across apical to basolateral side in human Caco-2 cells at 10 uM and measured after 2 hrs by LC-MS/MS analysis
Type: ADME, cell-based

Compound	Papp A→B at 2 h, 10 µM [×10⁻⁶ cm/s]
Cn1nc(C(=O)OCCCCNC[C@H](O)c2ccc(O)c3[nH]c(=O)ccc23)cc1COc1cccc([C@@H](NC(=O)O[C@H]2CN3CCC2CC3)c2ccccc2)c1	2.4
O=C(N[C@@H](c1ccccc1)c1cccc(OCc2ccc(CCNC[C@H](O)c3ccc(O)c4[nH]c(=O)ccc34)cc2)c1)O[C@H]1CN2CCC1CC2 (racemic)	2

====

Experiment: Metabolic stability in rat lung S9 fraction assessed as half life at 1 uM measured after 0 to 60 mins in presence of NADPH by LC-MS/MS analysis
Assay type: ADME, subcellular
Details: time 0-60 min
// reported half-life at 1 µM for each item listed

Compound	half-life at 1 µM
O=C(N[C@@H](c1ccccc1)c1cccc(OCc2nc(C(=O)OCCCCNC[C@H](O)c3ccc(O)c4[nH]c(=O)ccc34)co2)c1)O[C@H]1CN2CCC1CC2	2 h
O=C(N[C@@H](c1ccccc1)c1cccc(OCc2ccc(C(=O)OCCCCNC[C@H](O)c3ccc(O)c4[nH]c(=O)ccc34)o2)c1)O[C@H]1CN2CCC1CC2	2 h
Cn1nc(C(=O)OCCCCNC[C@H](O)c2ccc(O)c3[nH]c(=O)ccc23)cc1COc1cccc([C@@H](NC(=O)O[C@H]2CN3CCC2CC3)c2ccccc2)c1	0.5 h
O=C(N[C@@H](c1ccccc1)c1cccc(OCc2ccc(CCNC[C@H](O)c3ccc(O)c4[nH]c(=O)ccc34)cc2)c1)O[C@H]1CN2CCC1CC2 (racemic)	3.33 h

====

Assay: Tmax in Dunkin-Hartley guinea pig plasma at 500 nmol/Kg, IT(Intratracheal) measured after 72 hrs by LC/MS-MS analysis
Format: ADME, cell-free, Cavia porcellus
Conditions: inhaled or intranasal
Value Kind: Tmax (min)

Structure String	Quantitative Readout
Cn1nc(C(=O)OCCCCNC[C@H](O)c2ccc(O)c3[nH]c(=O)ccc23)cc1COc1cccc([C@@H](NC(=O)O[C@H]2CN3CCC2CC3)c2ccccc2)c1	4.98
O=c1ccc2c([C@@H](O)CNCCCCO)ccc(O)c2[nH]1	4.98
Cn1nc(C(=O)O)cc1COc1cccc([C@@H](NC(=O)O[C@H]2CN3CCC2CC3)c2ccccc2)c1	4.98

====

Assay: Metabolic stability in rat plasma assessed as half life at 5 uM measured upto 120 mins by LC-MS/MS analysis
Format: ADME, cell-free
Value Kind: half-life at 5 µM

Compound	Result
COc1cc(C(=O)OCCCCNC[C@H](O)c2ccc(O)c3[nH]c(=O)ccc23)ccc1COc1cccc([C@@H](NC(=O)O[C@H]2CN3CCC2CC3)c2ccccc2)c1	12 min
O=C(N[C@@H](c1ccccc1)c1cccc(OCc2ccc(C(=O)OCCCCNC[C@H](O)c3ccc(O)c4[nH]c(=O)ccc34)cc2)c1)O[C@H]1CN2CCC1CC2	< 5 min
O=C(N[C@@H](c1ccccc1)c1cccc(OCc2nc(C(=O)OCCCCNC[C@H](O)c3ccc(O)c4[nH]c(=O)ccc34)co2)c1)O[C@H]1CN2CCC1CC2	< 5 min
O=C(N[C@H](c1ccccc1)c1cccc(OCc2ccc(C(=O)OCCCCNC[C@H](O)c3ccc(O)c4[nH]c(=O)ccc34)cc2)c1)O[C@H]1CN2CCC1CC2	< 5 min
O=C(NC(c1ccccc1)c1cccc(OCc2ccc(C(=O)OCCCCNC[C@H](O)c3ccc(O)c4[nH]c(=O)ccc34)cc2)c1)O[C@H]1CN2CCC1CC2 (mixture of isomers)	< 5 min
Cn1nc(C(=O)OCCCCNC[C@H](O)c2ccc(O)c3[nH]c(=O)ccc23)cc1COc1cccc([C@@H](NC(=O)O[C@H]2CN3CCC2CC3)c2ccccc2)c1	< 5 min
O=C(N[C@@H](c1ccccc1)c1cccc(OCc2cccc(C(=O)OCCCCNC[C@H](O)c3ccc(O)c4[nH]c(=O)ccc34)c2)c1)O[C@H]1CN2CCC1CC2	103 min
O=C(N[C@@H](c1ccccc1)c1cccc(OCc2ccc(C(=O)OCCCCNC[C@H](O)c3ccc(O)c4[nH]c(=O)ccc34)o2)c1)O[C@H]1CN2CCC1CC2	7 min
